# tested_on: T1, murine CD19 protein (murine, UniProt P25918 17-287, limits assumed)
# T1 construct: bought protein; also called commercial murine CD19
# T1 sequence (looked up): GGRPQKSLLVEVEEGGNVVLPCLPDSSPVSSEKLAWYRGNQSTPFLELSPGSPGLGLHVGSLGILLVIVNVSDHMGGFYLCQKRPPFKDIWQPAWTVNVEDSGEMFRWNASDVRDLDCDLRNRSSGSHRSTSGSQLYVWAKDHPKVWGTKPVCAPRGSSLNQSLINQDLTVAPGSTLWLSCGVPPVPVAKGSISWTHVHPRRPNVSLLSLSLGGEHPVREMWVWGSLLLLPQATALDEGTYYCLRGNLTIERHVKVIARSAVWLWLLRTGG
# test_protocol: ELISA, coated murine CD19

binder	binding result
F4.276.12 (antibody, human IgG1, V domains shown, human-murine chimeric antibody, human IgG1) VH: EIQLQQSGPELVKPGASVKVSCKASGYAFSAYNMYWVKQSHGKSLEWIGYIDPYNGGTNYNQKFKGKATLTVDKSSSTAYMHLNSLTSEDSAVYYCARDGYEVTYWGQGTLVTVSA VL: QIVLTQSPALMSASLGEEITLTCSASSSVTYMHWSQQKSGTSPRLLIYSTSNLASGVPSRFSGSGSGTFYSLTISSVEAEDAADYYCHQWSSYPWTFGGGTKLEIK	no binding
F6.2.9 (antibody, human IgG1, V domains shown, human-murine chimeric antibody, human IgG1) VH: QVQLQQSGAELVKPGASVKISCKASGYAFSSYWMNWVKQRPGKGLEWIGQIYPGDGDTNYNGKFKGKATLTADKSSSTGYMQLSSLTSEDSAVYFCARSRITSVVDWYFDVWGTGTTVTVSS VL: QIVLSQSPAILSASPGEKVTMTCRASSSVSYMHWYQQKPGSSPKPWIYATSNLASGVPARFSGSGSGTSYSLTISRVEAEDAATYYCQQWSSNPPTFGAGTKLELK	no binding
F3.5.1 (antibody, human IgG1, V domains shown, human-murine chimeric antibody, human IgG1) VH: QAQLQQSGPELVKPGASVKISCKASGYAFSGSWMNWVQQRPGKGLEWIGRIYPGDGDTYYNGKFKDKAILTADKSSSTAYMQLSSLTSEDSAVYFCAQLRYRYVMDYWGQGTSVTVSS VL: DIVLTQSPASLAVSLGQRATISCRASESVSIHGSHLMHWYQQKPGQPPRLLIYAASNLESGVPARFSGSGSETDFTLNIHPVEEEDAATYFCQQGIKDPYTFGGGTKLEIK	no binding
